biological target: KPC-2 β-lactamase (UniProt Q9F663 25-293); assay: β-lactamase inhibition assay (nitrocefin hydrolysis, Morrison tight-binding fit); increasing concentrations of BLIP incubated with 1 nM β-lactamase for 1 h at room temperature in 50 mM sodium phosphate pH 7.0; nitrocefin added at its Km, initial velocity at 482 nm; Ki calculated from Ki app; details: both partners purified
Sequence (Q9F663 25-293): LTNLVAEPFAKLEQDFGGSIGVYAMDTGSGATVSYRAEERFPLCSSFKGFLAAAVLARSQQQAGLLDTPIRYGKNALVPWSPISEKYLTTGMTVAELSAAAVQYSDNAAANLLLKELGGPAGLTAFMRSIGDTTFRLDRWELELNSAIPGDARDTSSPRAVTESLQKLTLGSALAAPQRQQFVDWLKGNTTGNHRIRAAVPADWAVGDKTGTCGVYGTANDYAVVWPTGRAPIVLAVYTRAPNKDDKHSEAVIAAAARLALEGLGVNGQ
measurement.kind: pKi
Just so you know, pKi here is -log10 of the concentration in molar units; reply with that number alone.

# binder, pKi
data = [
    ("BLIP [change] (natural protein) AGVMTGAKFTQIQFGMTRQQVLDIAGAENCETGGSFGDSIHCRGHAAGDPYAYATFGFTSAAADAKVDSKSQEKLLAPSAPTLTLAKFNQVTVGMTRAQVLATVGQGSCTTWSEYYPAYPSTAGVTLSLSCFDVDGYSSTGFYRGSAHLWFTDGVLQGKRQWDLV", 8.30),
    ("BLIP [change] (natural protein) AGVMTGAKFTQIQFGMTRQQVLDIAGAENCETGGSFGDSIHCRGHAAGDNYAYATFGFTSAAADAKVDSKSQEKLLAPSAPTLTLAKFNQVTVGMTRAQVLATVGQGSCTTWSEYYPAYPSTAGVTLSLSCFDVDGYSSTGFYRGSAHLWFTDGVLQGKRQWDLV", 8.42),
    ("BLIP [change] (natural protein) AGVMTGAKFTQIQFGMTRQQVLDIAGAENCETGGSFGDSIHCRGHAAGDCYAYATFGFTSAAADAKVDSKSQEKLLAPSAPTLTLAKFNQVTVGMTRAQVLATVGQGSCTTWSEYYPAYPSTAGVTLSLSCFDVDGYSSTGFYRGSAHLWFTDGVLQGKRQWDLV", 7.38),
]

Asked: Identify the reported pKi for the following entry. BLIP [change] (natural protein) AGVMTGAKFTQIQFGMTRQQVLDIAGAENCETGGSFGDSIHCRGHAAGDKYAYATFGFTSAAADAKVDSKSQEKLLAPSAPTLTLAKFNQVTVGMTRAQVLATVGQGSCTTWSEYYPAYPSTAGVTLSLSCFDVDGYSSTGFYRGSAHLWFTDGVLQGKRQWDLV
Given back: 6.59

Asked: Identify the reported pKi for the following entry. BLIP [change] (natural protein) AGVMTGAKFTQIQFGMTRQQVLDIAGAENCETGGSFGDSIHCRGHAAGDMYAYATFGFTSAAADAKVDSKSQEKLLAPSAPTLTLAKFNQVTVGMTRAQVLATVGQGSCTTWSEYYPAYPSTAGVTLSLSCFDVDGYSSTGFYRGSAHLWFTDGVLQGKRQWDLV
Given back: 9.30

Asked: Identify the reported pKi for the following entry. BLIP [change] (natural protein) AGVMTGAKFTQIQFGMTRQQVLDIAGAENCETGGSFGDSIHCRGHAAGDWYAYATFGFTSAAADAKVDSKSQEKLLAPSAPTLTLAKFNQVTVGMTRAQVLATVGQGSCTTWSEYYPAYPSTAGVTLSLSCFDVDGYSSTGFYRGSAHLWFTDGVLQGKRQWDLV
Given back: 8.96
